In this section, each of the compounds is paired with its reported pIC50.
target_system: JAK2 (Homo sapiens, UniProt O60674)
Construct: endogenous in cells
Sequence (O60674 whole entry): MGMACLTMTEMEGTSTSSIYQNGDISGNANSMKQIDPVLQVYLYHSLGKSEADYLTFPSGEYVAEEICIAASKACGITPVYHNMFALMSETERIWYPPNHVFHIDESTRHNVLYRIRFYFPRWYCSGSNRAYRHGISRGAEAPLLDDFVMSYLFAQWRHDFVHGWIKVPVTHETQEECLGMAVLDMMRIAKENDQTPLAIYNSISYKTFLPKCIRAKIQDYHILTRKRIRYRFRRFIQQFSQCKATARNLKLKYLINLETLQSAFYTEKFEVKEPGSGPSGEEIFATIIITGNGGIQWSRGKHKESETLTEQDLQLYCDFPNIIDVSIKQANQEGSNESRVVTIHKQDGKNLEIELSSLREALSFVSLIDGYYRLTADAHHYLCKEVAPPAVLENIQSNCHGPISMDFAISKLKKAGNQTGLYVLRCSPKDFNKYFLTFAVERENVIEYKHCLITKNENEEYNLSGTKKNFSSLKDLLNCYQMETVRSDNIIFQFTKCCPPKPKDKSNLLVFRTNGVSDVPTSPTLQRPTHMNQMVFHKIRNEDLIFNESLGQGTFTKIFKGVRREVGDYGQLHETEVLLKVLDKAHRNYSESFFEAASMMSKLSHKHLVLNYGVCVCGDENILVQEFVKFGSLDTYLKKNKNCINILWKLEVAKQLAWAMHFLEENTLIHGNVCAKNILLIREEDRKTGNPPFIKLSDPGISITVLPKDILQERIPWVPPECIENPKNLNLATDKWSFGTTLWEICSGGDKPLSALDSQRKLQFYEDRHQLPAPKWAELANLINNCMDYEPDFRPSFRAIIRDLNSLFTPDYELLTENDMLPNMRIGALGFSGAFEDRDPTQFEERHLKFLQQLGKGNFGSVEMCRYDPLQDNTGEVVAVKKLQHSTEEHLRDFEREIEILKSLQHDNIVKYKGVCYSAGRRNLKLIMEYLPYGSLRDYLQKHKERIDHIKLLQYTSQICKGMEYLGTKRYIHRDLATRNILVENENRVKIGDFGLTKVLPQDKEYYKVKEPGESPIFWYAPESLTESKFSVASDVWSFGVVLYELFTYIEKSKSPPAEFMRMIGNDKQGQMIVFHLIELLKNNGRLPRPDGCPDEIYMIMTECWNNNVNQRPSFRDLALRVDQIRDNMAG
assay_text: Kinobeads assay, JAK2
recorded_conditions: mixed Molt4/Ramos lysate, read-out: Inhibition values (IC50) JAK2
pIC50: −log10 of the molar value.

Check out these entries, answers already filled in.
compound="CNC(=O)Cn1cc(Nc2ncc(Cl)c(NC(CO)c3ccccc3C(F)(F)F)n2)cn1 (stereo not shown)" result="5.00 to 6.00"
compound=COc1cccc([C@@H](CO)Nc2nc(Nc3cnn(C)c3)ncc2Cl)c1 result="≤ 5.00"
compound="OCCn1cc(Nc2ncc(Cl)c(NC(CO)c3cc(F)cc(F)c3)n2)cn1 (stereo not shown)" result="6.00 to 7.00"

API: the following record is the query input.
Qu. Using the record for Cn1cc(-c2cccc(C(CO)Nc3nc(Nc4cnn(CCO)c4)ncc3Cl)c2)cn1 (stereo not shown) , report its pIC50.
Ans. ≤ 5.00
